target system: T1, Recombinant human MASP1 enzyme (fragment corresponding to amino acids 297-699, C-terminal His Tag) (human, UniProt P48740 297-699)
T1 sequence: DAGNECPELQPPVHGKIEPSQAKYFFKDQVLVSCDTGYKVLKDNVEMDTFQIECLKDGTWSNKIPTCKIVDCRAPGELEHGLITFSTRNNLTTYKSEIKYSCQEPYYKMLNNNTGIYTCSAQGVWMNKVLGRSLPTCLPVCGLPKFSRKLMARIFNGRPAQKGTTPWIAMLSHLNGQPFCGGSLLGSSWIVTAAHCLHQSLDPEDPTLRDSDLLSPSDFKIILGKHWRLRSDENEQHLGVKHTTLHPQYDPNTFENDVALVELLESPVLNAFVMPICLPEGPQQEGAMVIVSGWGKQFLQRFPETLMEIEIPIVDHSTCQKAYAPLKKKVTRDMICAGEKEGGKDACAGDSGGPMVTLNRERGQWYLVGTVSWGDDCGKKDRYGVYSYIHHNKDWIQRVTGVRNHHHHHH
assay details: cell-based or functional assay
Bridge positions count the residues as written; N and C are the ends. Square brackets hold non-standard residues; d marks the D form. Ends that are not written are not given here. Pro(trans-4-F) = O=C(O)[C@@H]1C[C@@H](F)CN1; Oic = O=C(O)[C@@H]1C[C@@H]2CCCC[C@@H]2N1; Gly(cPent) = N[C@H](C(=O)O)C1CCCC1; NMeI = CC[C@H](C)[C@H](NC)C(=O)O; tBuAla = CC(C)(C)C[C@H](N)C(=O)O; Pen = CC(C)(S)[C@H](N)C(=O)O; NMeC = CN[C@@H](CS)C(=O)O; NMeA = CN[C@@H](C)C(=O)O; Sar = CNCC(=O)O
// classify(record): look up human MASP1 IC50 in ranges class 0 (below 7 nM), class 1 (7 nM to below 10 nM), class 2 (10 nM or more)

Answered cases to consult:
stdin: In plain terms, what class is [Sar]ICSRSLPPI[NMeC]IPD-OH (disulfide 3-11; N-terminus assumed; SMILES CC[C@H](C)[C@H](NC(=O)CNC)C(=O)N[C@H]1CSSC[C@@H](C(=O)N[C@H](C(=O)N2CCC[C@H]2C(=O)N[C@@H](CC(=O)O)C(=O)O)[C@@H](C)CC)N(C)C(=O)[C@H]([C@@H](C)CC)NC(=O)[C@@H]2CCCN2C(=O)[C@@H]2CCCN2C(=O)[C@H](CC(C)C)NC(=O)[C@H](CO)NC(=O)[C@H](CCCNC(=N)N)NC(=O)[C@H](CO)NC1=O) [((N-Me)G)-IC+SRSLPPI-((N-Me)C)+IPD-OH] ?
stdout: class 1

stdin: # repeat for AICSRS[tBuAla]P[Oic]ICIPD-NH2 (disulfide 3-11; N-terminus assumed; SMILES CC[C@H](C)[C@H](NC(=O)[C@H](C)N)C(=O)N[C@H]1CSSC[C@@H](C(=O)N[C@H](C(=O)N2CCC[C@H]2C(=O)N[C@@H](CC(=O)O)C(N)=O)[C@@H](C)CC)NC(=O)[C@H]([C@@H](C)CC)NC(=O)[C@@H]2C[C@@H]3CCCC[C@@H]3N2C(=O)[C@@H]2CCCN2C(=O)[C@H](CC(C)(C)C)NC(=O)[C@H](CO)NC(=O)[C@H](CCCNC(=N)N)NC(=O)[C@H](CO)NC1=O) [AIC+SRS-((tBu)A)-P-(Oic)-I-C+IPD-NH2]
stdout: class 1

stdin: Lookup [NMeA]ICSRSLP[Oic]I[Pen]IPQ-OH (disulfide 3-11; N-terminus assumed; SMILES CC[C@H](C)[C@H](NC(=O)[C@H](C)NC)C(=O)N[C@H]1CSSC(C)(C)[C@@H](C(=O)N[C@H](C(=O)N2CCC[C@H]2C(=O)N[C@@H](CCC(N)=O)C(=O)O)[C@@H](C)CC)NC(=O)[C@H]([C@@H](C)CC)NC(=O)[C@@H]2C[C@@H]3CCCC[C@@H]3N2C(=O)[C@@H]2CCCN2C(=O)[C@H](CC(C)C)NC(=O)[C@H](CO)NC(=O)[C@H](CCCNC(=N)N)NC(=O)[C@H](CO)NC1=O) [((N-Me)A)-IC+SRSLP-(Oic)-I-(Pen)+IPQ-OH]
stdout: class 0

stdin: Now consider AICSRSLPP[Gly(cPent)]CIPD-NH2 (disulfide 3-11; N-terminus assumed; SMILES CC[C@H](C)[C@H](NC(=O)[C@H](C)N)C(=O)N[C@H]1CSSC[C@@H](C(=O)N[C@H](C(=O)N2CCC[C@H]2C(=O)N[C@@H](CC(=O)O)C(N)=O)[C@@H](C)CC)NC(=O)[C@H](C2CCCC2)NC(=O)[C@@H]2CCCN2C(=O)[C@@H]2CCCN2C(=O)[C@H](CC(C)C)NC(=O)[C@H](CO)NC(=O)[C@H](CCCNC(=N)N)NC(=O)[C@H](CO)NC1=O) [AIC+SRSLPP-(Cpg)-C+IPD-NH2] and answer again.
stdout: class 2

stdin: Repeat with AICSRS[tBuAla]PP[(2S)‑2‑(Amino)‑2‑((1S,3S)-3-hydroxycyclohexyl)acetic acid][NMeC]IPD-NH2 (disulfide 3-11) [AIC+SRS-((tBu)A)-PP-((2S)-2-(Amino)-2-[(1S,3S)-3-hydroxycyclohexyl]acetic acid)-((N-Me)C)+IPD-NH2]
stdout: class 0

stdin: # iterate: [NMeA]ICSRS[tBuAla]PPICIPD-NH2 (disulfide 3-11; N-terminus assumed; SMILES CC[C@H](C)[C@H](NC(=O)[C@H](C)NC)C(=O)N[C@H]1CSSC[C@@H](C(=O)N[C@H](C(=O)N2CCC[C@H]2C(=O)N[C@@H](CC(=O)O)C(N)=O)[C@@H](C)CC)NC(=O)[C@H]([C@@H](C)CC)NC(=O)[C@@H]2CCCN2C(=O)[C@@H]2CCCN2C(=O)[C@H](CC(C)(C)C)NC(=O)[C@H](CO)NC(=O)[C@H](CCCNC(=N)N)NC(=O)[C@H](CO)NC1=O) [((N-Me)A)-IC+SRS-((tBu)A)-PPIC+IPD-NH2]
stdout: class 1

stdin: Also [Sar]ICSRSLPPICI[Pro(trans-4-F)]D-OH (disulfide 3-11; N-terminus assumed; SMILES CC[C@H](C)[C@H](NC(=O)CNC)C(=O)N[C@H]1CSSC[C@@H](C(=O)N[C@H](C(=O)N2C[C@H](F)C[C@H]2C(=O)N[C@@H](CC(=O)O)C(=O)O)[C@@H](C)CC)NC(=O)[C@H]([C@@H](C)CC)NC(=O)[C@@H]2CCCN2C(=O)[C@@H]2CCCN2C(=O)[C@H](CC(C)C)NC(=O)[C@H](CO)NC(=O)[C@H](CCCNC(=N)N)NC(=O)[C@H](CO)NC1=O) [((N-Me)G)-IC+SRSLPPIC+I-((trans-4-Fluoro)P)-D-OH] ?
stdout: class 2

New cases:
stdin: Pick a category. Item: G[NMeI]CSRSLPPICIPD-OH (disulfide 3-11; N-terminus assumed; SMILES CC[C@H](C)[C@@H]1NC(=O)[C@@H]2CCCN2C(=O)[C@@H]2CCCN2C(=O)[C@H](CC(C)C)NC(=O)[C@H](CO)NC(=O)[C@H](CCCNC(=N)N)NC(=O)[C@H](CO)NC(=O)[C@@H](NC(=O)[C@H]([C@@H](C)CC)N(C)C(=O)CN)CSSC[C@@H](C(=O)N[C@H](C(=O)N2CCC[C@H]2C(=O)N[C@@H](CC(=O)O)C(=O)O)[C@@H](C)CC)NC1=O) [G-((N-Me)I)-C+SRSLPPIC+IPD-OH]
stdout: class 2
